Each entry below carries its recorded PL.
- Species: Rattus norvegicus
- measurement-notes: Open TG-GATES - Regimen: Daily Repeat
- Type: toxicity, organism-based, Sprague-Dawley
- Set-up: regimen Daily Repeat, gender Male, age 6 weeks
- condition: in vivo, po, 100 mg/kg, […], tissue Plasma, route gavage, dose level Low, time 7 day
In your response, the unit should come after the numeric value.

Field: example entries. Status: answers known.
CCOC(=O)CCC(=O)O[C@H]1[C@H](O[C@@H]2[C@@H](C)[C@H](O[C@H]3C[C@@](C)(OC)[C@@H](O)[C@H](C)O3)[C@@H](C)C(=O)O[C@H](CC)[C@@](C)(O)[C@H](O)[C@@H](C)C(=O)[C@H](C)C[C@@]2(C)O)O[C@H](C)C[C@@H]1N(C)C [ERYTHROMYCIN ETHYLSUCCINATE] : 135.8 mg/dL
CCOc1ccc(NC(=O)CC(C)O)cc1 (stereo not given) : 172.8 mg/dL
NC(N)=Nc1nc(CSCCC(N)=NS(N)(=O)=O)cs1 : 151 mg/dL
COC1=CC(=O)C[C@@H](C)[C@]12Oc1c(Cl)c(OC)cc(OC)c1C2=O : 135.2 mg/dL

Qu. PL for COc1ccc2[nH]c([S+]([O-])Cc3ncc(C)c(OC)c3C)nc2c1 (stereo not given) ?
Ans. 150 mg/dL

* * *

- Organism: Rattus norvegicus
- measurement-notes: Open TG-GATES - Regimen: Daily Repeat
- Type: toxicity, organism-based, Sprague-Dawley
- Design: regimen Daily Repeat, gender Male, age 6 weeks
- condition: in vivo, po, 0 mg/kg, 72 h, tissue Plasma, route gavage, dose level Control, time 3 day
property: CRE
In your response, the unit should come after the numeric value.

Field: example entries. Status: answers known.
CN(C)CCCN1c2ccccc2CCc2ccccc21 : 0.2 mg/dL
CC1=C(/C=C/C(C)=C/C=C/C(C)=C/CO)C(C)(C)CCC1 : 0.1 mg/dL

Could you now consider this next molecule?
Qu. CRE for NNC(=O)c1ccncc1 ?
Ans. 0.5 mg/dL

* * *

- Species on record: Rattus norvegicus
- measurement-notes: Open TG-GATES - Regimen: Single
- Format: toxicity, organism-based, Sprague-Dawley
- Design: regimen Single, gender Male, age 6 weeks
- condition: in vivo, po, 0 mg/kg, 3 h, tissue Blood, route gavage, dose level Control
The threshold is inclusive: Ret of exactly 8% counts as met; values below receive not met.

C[C@@H]1C[C@H]2[C@@H]3CCC4=CC(=O)C=C[C@]4(C)[C@@]3(F)[C@@H](O)C[C@]2(C)[C@@]1(O)C(=O)CO [DEXAMETHASONE] : met

Would you kindly look at the next entry?
Qu. Entry COC1=CC(=O)C[C@@H](C)[C@]12Oc1c(Cl)c(OC)cc(OC)c1C2=O [GRISEOFULVIN] : is its Ret no less than 8%?
Ans. not met

* * *

- Organism: Rattus norvegicus
- measurement-notes: Open TG-GATES - Regimen: Single
- Assay type: toxicity, organism-based, Sprague-Dawley
- Set-up: regimen Single, gender Male, age 6 weeks
- condition: in vivo, po, 30 mg/kg, 6 h, tissue Blood, route gavage, dose level Middle
property: PT (s)
Numbers only; they are read as s.

CN(C)CCCN1c2ccccc2CCc2ccccc21 : 15.7
CC1=C(/C=C/C(C)=C/C=C/C(C)=C/CO)C(C)(C)CCC1 : 15.5
CN(C)CCN(Cc1cccs1)c1ccccn1 : 16.9

Could you now consider this next compound?
Qu. PT for CN(C)CCCN1c2ccccc2CCc2ccc(Cl)cc21 ?
Ans. 13.7

* * *

Each entry below carries its recorded PL.
- Organism: Rattus norvegicus
- measurement-notes: Open TG-GATES - Regimen: Single
- Assay type: toxicity, organism-based, Sprague-Dawley
- Parameters: regimen Single, gender Male, age 6 weeks
- condition: in vivo, po, 10 mg/kg, 3 h, tissue Plasma, route gavage, dose level Low
Numbers only; they are read as mg/dL.

CN(C)CCCN1c2ccccc2CCc2ccc(Cl)cc21 : 148.6
CC1=C(/C=C/C(C)=C/C=C/C(C)=C/CO)C(C)(C)CCC1 : 160.6
CC(C)OC(=O)C(C)(C)Oc1ccc(C(=O)c2ccc(Cl)cc2)cc1 [FENOFIBRATE] : 140.8

Qu. PL for CN(C)CCN(Cc1cccs1)c1ccccn1 ?
Ans. 125.4

* * *

- Species: Rattus norvegicus
- measurement-notes: Open TG-GATES - Regimen: Single
- Type: toxicity, organism-based, Sprague-Dawley
- Parameters: regimen Single, gender Male, age 6 weeks
- condition: in vivo, po, 0 mg/kg, 9 h, tissue Liver, route gavage, dose level Control
property: LIVER (g)
Numbers only; they are read as g.

Field: example entries. Status: answers known.
CN1C(=O)CN=C(c2ccccc2)c2cc(Cl)ccc21 : 9
C[C@@H]1C[C@H]2[C@@H]3CCC4=CC(=O)C=C[C@]4(C)[C@@]3(F)[C@@H](O)C[C@]2(C)[C@@]1(O)C(=O)CO : 9.4
COC1=CC(=O)C[C@@H](C)[C@]12Oc1c(Cl)c(OC)cc(OC)c1C2=O : 8.3

Qu. LIVER for CN(C)CCCN1c2ccccc2CCc2ccccc21 ?
Ans. 8.2

* * *

- Species on record: Rattus norvegicus
- measurement-notes: Open TG-GATES - Regimen: Daily Repeat
- Type: toxicity, organism-based, Sprague-Dawley
- Parameters: regimen Daily Repeat, gender Male, age 6 weeks
- condition: in vivo, po, 0 mg/kg, […], tissue Blood, route gavage, dose level Control, time 7 day
property: Neu (%)
Numbers only; they are read as %.

Field: example entries. Status: answers known.
CC1=C(/C=C/C(C)=C/C=C/C(C)=C/CO)C(C)(C)CCC1 : 16.4
NNC(=O)c1ccncc1 : 11.6
COc1ccc2[nH]c([S+]([O-])Cc3ncc(C)c(OC)c3C)nc2c1 (stereo unspecified) : 16.2
CN1C(=O)CN=C(c2ccccc2)c2cc(Cl)ccc21 : 11
CN(C)CCN(Cc1cccs1)c1ccccn1 : 16.4
CCOC(=O)CCC(=O)O[C@H]1[C@H](O[C@@H]2[C@@H](C)[C@H](O[C@H]3C[C@@](C)(OC)[C@@H](O)[C@H](C)O3)[C@@H](C)C(=O)O[C@H](CC)[C@@](C)(O)[C@H](O)[C@@H](C)C(=O)[C@H](C)C[C@@]2(C)O)O[C@H](C)C[C@@H]1N(C)C [ERYTHROMYCIN ETHYLSUCCINATE] : 17.4
CCCNC(=O)NS(=O)(=O)c1ccc(Cl)cc1 [CHLORPROPAMIDE] : 18.8
O=C(CCCN1CCC(O)(c2ccc(Cl)cc2)CC1)c1ccc(F)cc1 : 14

Qu. Neu for NC(N)=Nc1nc(CSCCC(N)=NS(N)(=O)=O)cs1 ?
Ans. 14.8

Qu. Moving on to the next compound: CCOc1ccc(NC(=O)CC(C)O)cc1 (stereo unspecified)
Ans. 14.4

Qu. Moving on to the next compound: COC1=CC(=O)C[C@@H](C)[C@]12Oc1c(Cl)c(OC)cc(OC)c1C2=O
Ans. 17.4

* * *

- Species on record: Rattus norvegicus
- measurement-notes: Open TG-GATES - Regimen: Daily Repeat
- Assay type: toxicity, organism-based, Sprague-Dawley
- Design: regimen Daily Repeat, gender Male, age 6 weeks
- condition: in vivo, po, 300 mg/kg, […], tissue Plasma, route gavage, dose level Middle, time 28 day
property: TG (mg/dL)
Numbers only; they are read as mg/dL.

Qu. TG for NC(N)=Nc1nc(CSCCC(N)=NS(N)(=O)=O)cs1 [FAMOTIDINE] ?
Ans. 86.2

Qu. Moving on to the next compound: COC1=CC(=O)C[C@@H](C)[C@]12Oc1c(Cl)c(OC)cc(OC)c1C2=O [GRISEOFULVIN]
Ans. 83

Qu. Moving on to the next compound: CCOc1ccc(NC(=O)CC(C)O)cc1 (stereo not given) [BUCETIN]
Ans. 188.2

Qu. Moving on to the next compound: COc1ccc2[nH]c([S+]([O-])Cc3ncc(C)c(OC)c3C)nc2c1 (stereo not given) [OMEPRAZOLE]
Ans. 66

Qu. Moving on to the next compound: CCOC(=O)CCC(=O)O[C@H]1[C@H](O[C@@H]2[C@@H](C)[C@H](O[C@H]3C[C@@](C)(OC)[C@@H](O)[C@H](C)O3)[C@@H](C)C(=O)O[C@H](CC)[C@@](C)(O)[C@H](O)[C@@H](C)C(=O)[C@H](C)C[C@@]2(C)O)O[C@H](C)C[C@@H]1N(C)C [ERYTHROMYCIN ETHYLSUCCINATE]
Ans. 140

* * *

- Species on record: Rattus norvegicus
- measurement-notes: Open TG-GATES - Regimen: Single
- Assay type: toxicity, organism-based, Sprague-Dawley
- Set-up: regimen Single, gender Male, age 6 weeks
- condition: in vivo, po, 300 mg/kg, 3 h, tissue Kidney, route gavage, dose level Middle
Each entry below carries its recorded KIDNEY_R.
Numbers only; they are read as g.

Field: example entries. Status: answers known.
COc1ccc2[nH]c([S+]([O-])Cc3ncc(C)c(OC)c3C)nc2c1 (centres undefined) : 1
NC(N)=Nc1nc(CSCCC(N)=NS(N)(=O)=O)cs1 : 1
COC1=CC(=O)C[C@@H](C)[C@]12Oc1c(Cl)c(OC)cc(OC)c1C2=O : 0.9

Could you now consider this next compound?
Qu. KIDNEY_R for CCOC(=O)CCC(=O)O[C@H]1[C@H](O[C@@H]2[C@@H](C)[C@H](O[C@H]3C[C@@](C)(OC)[C@@H](O)[C@H](C)O3)[C@@H](C)C(=O)O[C@H](CC)[C@@](C)(O)[C@H](O)[C@@H](C)C(=O)[C@H](C)C[C@@]2(C)O)O[C@H](C)C[C@@H]1N(C)C [ERYTHROMYCIN ETHYLSUCCINATE] ?
Ans. 1
